Experiment: Test 2: Pharmacokinetic test in rats
Format: in vivo, rat
Details: rat, blood, iv, 10 mg/kg, Rat-3, i.v. 10 mg/kg, 60 min; read-out: Blood concentration
Procedure: Male rats and dogs were fasted for 24 hours and used as the experimental animals. […] Bloods were collected from the animals at given time intervals and then immediately mixed with methanol and zinc sulfate. Finally, the upper layer of the mixture was quantitatively analyzed at ultraviolet wavelength of 231 nm to measure the drug concentration in blood by HPLC.
readoutType: concentration at 1 h (ng/mL)
Numbers only here, please. The scale is ng/mL.

For CN(C(=O)[C@H](Cc1ccc(C(=N)NN)cc1)NS(=O)(=O)c1ccc2ccccc2c1)C1CCCC1 [Example 1] the compound record lists concentration at 1 h as 289
